Data provenance: patent US8349835B2

- Measured On: VEGFR-2 (Homo sapiens, UniProt P35968)
- Sequence (P35968 20-1356): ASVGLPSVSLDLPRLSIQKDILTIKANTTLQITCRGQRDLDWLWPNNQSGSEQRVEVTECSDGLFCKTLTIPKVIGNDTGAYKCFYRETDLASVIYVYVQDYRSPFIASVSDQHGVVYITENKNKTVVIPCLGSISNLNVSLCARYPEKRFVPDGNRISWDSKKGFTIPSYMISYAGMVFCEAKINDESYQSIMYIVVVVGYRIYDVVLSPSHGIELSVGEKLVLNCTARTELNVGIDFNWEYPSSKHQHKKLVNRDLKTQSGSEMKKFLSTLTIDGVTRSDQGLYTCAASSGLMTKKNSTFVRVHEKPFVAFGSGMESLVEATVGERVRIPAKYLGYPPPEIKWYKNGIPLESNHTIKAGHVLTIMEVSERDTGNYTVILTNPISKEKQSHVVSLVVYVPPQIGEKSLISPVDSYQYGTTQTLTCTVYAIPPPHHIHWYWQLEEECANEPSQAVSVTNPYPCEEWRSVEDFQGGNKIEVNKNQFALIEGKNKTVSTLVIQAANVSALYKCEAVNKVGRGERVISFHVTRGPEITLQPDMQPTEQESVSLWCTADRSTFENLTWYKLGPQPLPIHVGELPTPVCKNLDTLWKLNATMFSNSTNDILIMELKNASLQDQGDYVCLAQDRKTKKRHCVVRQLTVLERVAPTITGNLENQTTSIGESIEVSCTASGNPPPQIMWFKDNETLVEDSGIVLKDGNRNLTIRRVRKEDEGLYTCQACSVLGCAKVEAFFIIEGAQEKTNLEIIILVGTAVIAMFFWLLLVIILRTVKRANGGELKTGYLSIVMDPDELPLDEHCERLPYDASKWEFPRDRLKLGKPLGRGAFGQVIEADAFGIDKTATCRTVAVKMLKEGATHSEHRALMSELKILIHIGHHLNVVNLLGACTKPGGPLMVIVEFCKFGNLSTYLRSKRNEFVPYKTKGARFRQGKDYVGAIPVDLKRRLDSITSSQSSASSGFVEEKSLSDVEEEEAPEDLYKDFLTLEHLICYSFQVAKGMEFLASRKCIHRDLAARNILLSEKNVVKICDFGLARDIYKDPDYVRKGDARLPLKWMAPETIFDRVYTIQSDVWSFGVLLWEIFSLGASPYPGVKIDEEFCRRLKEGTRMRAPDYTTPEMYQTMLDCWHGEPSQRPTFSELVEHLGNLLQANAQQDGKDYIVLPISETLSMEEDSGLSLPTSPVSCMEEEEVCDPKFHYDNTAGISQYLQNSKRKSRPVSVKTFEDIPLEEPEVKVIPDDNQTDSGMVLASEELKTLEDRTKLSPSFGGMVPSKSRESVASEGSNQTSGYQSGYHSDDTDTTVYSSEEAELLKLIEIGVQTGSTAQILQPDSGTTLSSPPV
- Assay Overview: VEGFR-2 inhibition rate test (kinase assay kit, colorimetric ELISA)
- Details: concentration not given
Recorded Kinase inhibition rate (VEGFR-2) for the following compounds
Measured Attribute: Kinase inhibition rate (VEGFR-2)

- Compound: "CCCCOc1cc2nnnc(Nc3ccccc3)c2cc1OC [Example 11]"
  Measured On: "VEGFR-2 (Homo sapiens, UniProt P35968)"
  Measured Attribute: "Kinase inhibition rate (VEGFR-2)"
  Numeric Readout: "−4.27"
- Compound: "CCCCCOc1cc2nnnc(Nc3ccc(F)c(C(F)(F)F)c3)c2cc1OC [Example 56]"
  Measured On: "VEGFR-2 (Homo sapiens, UniProt P35968)"
  Measured Attribute: "Kinase inhibition rate (VEGFR-2)"
  Numeric Readout: "−3.74"
- Compound: "FC(F)(F)Oc1cccc(Nc2nnnc3ccccc23)c1 [Example 7]"
  Measured On: "VEGFR-2 (Homo sapiens, UniProt P35968)"
  Measured Attribute: "Kinase inhibition rate (VEGFR-2)"
  Numeric Readout: "−17.64"
- Compound: "Clc1ccc(Nc2nnnc3ncc(Cl)cc23)cc1 [Example 83]"
  Measured On: "VEGFR-2 (Homo sapiens, UniProt P35968)"
  Measured Attribute: "Kinase inhibition rate (VEGFR-2)"
  Numeric Readout: 23.56
- Compound: "CCCCCOc1cc2nnnc(Nc3cccc(C(F)(F)F)c3)c2cc1OC [Example 50]"
  Measured On: "VEGFR-2 (Homo sapiens, UniProt P35968)"
  Measured Attribute: "Kinase inhibition rate (VEGFR-2)"
  Numeric Readout: "−9.35"
- Compound: "Clc1cc(Cl)cc(Nc2nnnc3ccccc23)c1 [Example 10]"
  Measured On: "VEGFR-2 (Homo sapiens, UniProt P35968)"
  Measured Attribute: "Kinase inhibition rate (VEGFR-2)"
  Numeric Readout: "−2.67"
- Compound: "CCCCOc1cc2nnnc(Nc3ccc(C(F)(F)F)cc3)c2cc1OC [Example 18]"
  Measured On: "VEGFR-2 (Homo sapiens, UniProt P35968)"
  Measured Attribute: "Kinase inhibition rate (VEGFR-2)"
  Numeric Readout: 3.20
- Compound: "Clc1cccc(Nc2nnnc3ccccc23)c1 [Example 4]"
  Measured On: "VEGFR-2 (Homo sapiens, UniProt P35968)"
  Measured Attribute: "Kinase inhibition rate (VEGFR-2)"
  Numeric Readout: 12.83
- Compound: "Fc1cc(Nc2nnnc3ccccc23)ccc1Br [Example 8]"
  Measured On: "VEGFR-2 (Homo sapiens, UniProt P35968)"
  Measured Attribute: "Kinase inhibition rate (VEGFR-2)"
  Numeric Readout: "−6.95"
- Compound: "Fc1ccc(Nc2nnnc3ccccc23)cc1Cl [Example 1]"
  Measured On: "VEGFR-2 (Homo sapiens, UniProt P35968)"
  Measured Attribute: "Kinase inhibition rate (VEGFR-2)"
  Numeric Readout: 3.47
